Reference source for all entries: ChEMBL document CHEMBL3862000

Assay: Drug uptake in diet-induced obese mouse plasma at 30 mg/kg, po qd for 3 weeks measured 2 hrs post last dose on day 23
Assay type: ADME, organism-based
measuredQuantity: concentration at 2 h
Report as: number unit

**Query** State the recorded concentration at 2 h for this entry: `C[C@@H](NC(=O)c1nn(-c2ccc(Cl)c(Cl)c2)c2c1CCCC/C2=C\c1ccc(F)cc1)c1ccccn1`
**Result** 6.62 µM

###

Molecular target: UniProt P21554
Sequence (P21554 whole entry): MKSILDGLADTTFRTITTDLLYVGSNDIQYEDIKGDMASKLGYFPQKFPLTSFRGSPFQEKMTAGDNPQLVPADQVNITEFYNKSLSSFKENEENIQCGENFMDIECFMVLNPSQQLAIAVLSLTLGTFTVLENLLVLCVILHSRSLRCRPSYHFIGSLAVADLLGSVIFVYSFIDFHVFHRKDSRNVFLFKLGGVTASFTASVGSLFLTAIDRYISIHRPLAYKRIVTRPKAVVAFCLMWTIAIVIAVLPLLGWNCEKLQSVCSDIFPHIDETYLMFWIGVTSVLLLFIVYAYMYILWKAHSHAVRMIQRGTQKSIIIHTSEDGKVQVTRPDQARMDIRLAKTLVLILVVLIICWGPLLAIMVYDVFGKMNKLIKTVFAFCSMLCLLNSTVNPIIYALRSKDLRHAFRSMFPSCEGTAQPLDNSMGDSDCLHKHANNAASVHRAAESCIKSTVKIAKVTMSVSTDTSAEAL
Experiment: Inverse agonist activity at human cannabinoid receptor 1 expressed in HEK293 cells assessed as increase in forskolin-induced cAMP production preincubated with cells followed by forskolin stimulation measured after 30 mins in presence of D2-labeled cAMP and Eu3+-TBP-NHS cryptate by HTRF assay
Overview of recorded EC50 for various molecules
Please reply with the bare figure in nM and do not write the unit itself.

Examples with their reported EC50 follow.
# lineNotation, targetSystem, measuredQuantity, resultValue
measured = [
    ("C[C@@H](NC(=O)c1nn(-c2ccc(Cl)cc2)c2c1CCC/C2=C\\c1ccc(Cl)cn1)c1ccccn1", "UniProt P21554", "EC50", 22),
    ("O=C(NC1(c2ccccn2)CC1)c1nn(-c2ccc(Cl)cc2)c2c1CCC/C2=C\\c1ccc(Cl)cc1", "UniProt P21554", "EC50", 7),
    ("C[C@@H](NC(=O)c1nn(-c2ccc(Cl)cc2Cl)c2c1CCCC/C2=C\\c1ccc(Cl)s1)c1ccccn1", "UniProt P21554", "EC50", 2),
    ("O=C(NC1(c2ccccn2)CC1)c1nn(-c2ccc(Cl)c(Cl)c2)c2c1CCCC/C2=C\\c1ccc(F)cc1", "UniProt P21554", "EC50", 13),
    ("C[C@@H](NC(=O)c1nn(-c2ccc(Cl)cc2)c2c1CCC/C2=C\\c1ccc(Cl)cc1)c1ccccn1", "UniProt P21554", "EC50", 127),
]

**Query** State its EC50 on UniProt P21554: `O=C(NC1(c2ccccn2)CC1)c1nn(-c2ccc(C(F)(F)F)cc2Cl)c2c1CCCC/C2=C\c1ccc(Cl)s1`
**Result** 8

**Query** State its EC50 on UniProt P21554: `C[C@@H](NC(=O)c1nn(-c2ccc(Cl)c(Cl)c2)c2c1CCC/C2=C\c1ccc(Cl)s1)c1ccccn1`
**Result** 37

**Query** State its EC50 on UniProt P21554: `O=C(NC1(c2ccccn2)CC1)c1nn(-c2ccc(C(F)(F)F)cc2Cl)c2c1CCC/C2=C\c1ccc(Cl)s1`
**Result** 11

**Query** State its EC50 on UniProt P21554: `C[C@@H](NC(=O)c1nn(-c2ccc(Cl)c(Cl)c2)c2c1CCCC/C2=C\c1ccc(C(F)(F)F)cc1)c1ccccn1`
**Result** 56

**Query** State its EC50 on UniProt P21554: `C[C@@H](NC(=O)c1nn(-c2ccc(C(F)(F)F)cc2Cl)c2c1CCC/C2=C\c1ccc(Cl)s1)c1ccccn1`
**Result** 18

**Query** State its EC50 on UniProt P21554: `O=C(NC1CCN(c2ccccn2)CC1)c1nn(-c2ccc(Cl)cc2Cl)c2c1CCCC/C2=C\c1ccc(F)cc1`
**Result** 28

###

Molecular target: UniProt:P34972
Sequence (P34972 whole entry): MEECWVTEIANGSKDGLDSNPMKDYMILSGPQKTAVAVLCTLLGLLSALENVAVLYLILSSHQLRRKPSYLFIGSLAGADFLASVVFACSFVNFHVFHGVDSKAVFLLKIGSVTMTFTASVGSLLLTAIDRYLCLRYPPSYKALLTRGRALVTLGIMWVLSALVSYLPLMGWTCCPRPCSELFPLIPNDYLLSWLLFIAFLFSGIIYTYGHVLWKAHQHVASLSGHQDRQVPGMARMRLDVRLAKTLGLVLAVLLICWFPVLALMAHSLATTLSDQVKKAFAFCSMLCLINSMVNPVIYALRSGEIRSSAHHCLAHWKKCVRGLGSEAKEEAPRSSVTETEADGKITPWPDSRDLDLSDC
Experiment: Inverse agonist activity at human cannabinoid receptor 2 expressed in HEK293 cells assessed as increase in forskolin-induced cAMP production preincubated with cells followed by forskolin stimulation measured after 30 mins in presence of D2-labeled cAMP and Eu3+-TBP-NHS cryptate by HTRF assay
measuredQuantity: EC50 (nM)
Please reply with the bare figure in nM and do not write the unit itself.

# lineNotation, unitAbbrev, resultValue
rows = [
    ("C[C@@H](NC(=O)c1nn(-c2ccc(Cl)cc2Cl)c2c1CCC/C2=C\\c1ccc(Cl)cc1)c1ccccn1", "nM", 854),
    ("C[C@@H](NC(=O)c1nn(-c2ccc(Cl)c(Cl)c2)c2c1CCCC/C2=C\\c1ccc(F)cc1)c1ccccn1", "nM", 2000),
    ("C[C@@H](NC(=O)c1nn(-c2ccc(Cl)cc2Cl)c2c1CCCC/C2=C\\c1ccc(Cl)s1)c1ccccn1", "nM", 9410),
    ("O=C(NC1(c2ccccn2)CC1)c1nn(-c2ccc(Cl)c(Cl)c2)c2c1CCCC/C2=C\\c1ccc(F)cc1", "nM", 807),
]

**Query** State the recorded EC50 for this entry: `C[C@@H](NC(=O)c1nn(-c2ccc(Cl)cc2Cl)c2c1CCCC/C2=C\c1ccc(Cl)cc1)c1ccccn1`
**Result** 743

###

Overview of recorded Drug uptake for various molecules
Assay: Drug uptake in C57bl/6j mouse brain without cerebellum at 20 mg/kg, po measured at 2 hrs post dose by LC/MS analysis
Format: ADME, organism-based
Conditions: in vivo, 2 h
Please reply with the bare figure in nmol/g and do not write the unit itself.

# lineNotation, Drug uptake / nmol/g
records = [
    ("C[C@@H](NC(=O)c1nn(-c2ccc(Cl)c(Cl)c2)c2c1CCCC/C2=C\\c1ccc(C(F)(F)F)cc1)c1ccccn1", 0.05),
]

**Query** State the recorded Drug uptake for this entry: `C[C@@H](NC(=O)c1nn(-c2ccc(Cl)cc2Cl)c2c1CCCC/C2=C\c1ccc(Cl)s1)c1ccccn1`
**Result** 0.56

**Query** State the recorded Drug uptake for this entry: `C[C@@H](NC(=O)c1nn(-c2ccc(Cl)c(Cl)c2)c2c1CCCC/C2=C\c1ccc(Cl)cc1)c1ccccn1`
**Result** 0.05

**Query** State the recorded Drug uptake for this entry: `C[C@@H](NC(=O)c1nn(-c2ccc(Cl)cc2)c2c1CCC/C2=C\c1ccc(Cl)cc1)c1ccccn1`
**Result** 0.97

**Query** State the recorded Drug uptake for this entry: `C[C@@H](NC(=O)c1nn(-c2ccc(Cl)cc2Cl)c2c1CCC/C2=C\c1ccc(F)cc1)c1ccccn1`
**Result** 1.39

**Query** State the recorded Drug uptake for this entry: `O=C(NC1CCN(c2ccccn2)CC1)c1nn(-c2ccc(Cl)cc2Cl)c2c1CCCC/C2=C\c1ccc(F)cc1`
**Result** 0.05

###

Assay: Drug uptake in C57bl/6j mouse brain without cerebellum at 20 mg/kg, po measured at 2 hrs post dose by LC/MS analysis
Type: ADME, organism-based
Settings: in vivo, 2 h
Overview of recorded log10 of Drug uptake for various compounds
# values: log10(Drug uptake), units nmol/g

Examples with their reported log10 of Drug uptake follow.
# lineNotation, log10 of Drug uptake
data = [
    ("O=C(NC1CCN(c2ccccn2)CC1)c1nn(-c2ccc(Cl)cc2Cl)c2c1CCC/C2=C\\c1ccc(F)cc1", -1.46),
    ("C[C@@H](NC(=O)c1nn(-c2ccc(Cl)cc2Cl)c2c1CCCC/C2=C\\c1ccc(Cl)cc1)c1ccccn1", -0.89),
    ("C[C@@H](NC(=O)c1nn(-c2ccc(Cl)cc2)c2c1CCCC/C2=C\\c1ccc(F)cc1)c1ccccn1", 0.01),
    ("C[C@@H](NC(=O)c1nn(-c2ccc(Cl)cc2)c2c1CCC/C2=C\\c1ccc(Cl)cn1)c1ccccn1", 0.28),
    ("C[C@@H](NC(=O)c1nn(-c2ccc(Cl)cc2Cl)c2c1CCC/C2=C\\c1ccc(Cl)s1)c1ccccn1", -0.62),
]

**Query** State the recorded log10 of Drug uptake for this entry: `O=C(NC1(c2ccccn2)CC1)c1nn(-c2ccc(Cl)c(Cl)c2)c2c1CCCC/C2=C\c1ccc(F)cc1`
**Result** -0.96

**Query** State the recorded log10 of Drug uptake for this entry: `C[C@@H](NC(=O)c1nn(-c2ccc(Cl)c(Cl)c2)c2c1CCCC/C2=C\c1ccc(F)cc1)c1ccccn1`
**Result** -1.15

**Query** State the recorded log10 of Drug uptake for this entry: `C[C@@H](NC(=O)c1nn(-c2ccc(Cl)cc2Cl)c2c1CCCC/C2=C\c1ccc(Cl)cn1)c1ccccn1`
**Result** -0.80

###

Experiment: Drug uptake in C57bl/6j mouse plasma at 20 mg/kg, po measured at 4 hr post dose by LC/MS analysis
Type: ADME, organism-based
Overview of recorded concentration at 4 h for various compounds
Please reply with the bare figure in µM and do not write the unit itself.

Examples with their reported concentration at 4 h follow.
# lineNotation, concentration at 4 h (µM)
data = [
    ("C[C@@H](NC(=O)c1nn(-c2ccc(Cl)cc2Cl)c2c1CCC/C2=C\\c1ccc(Cl)cc1)c1ccccn1", 1.6),
    ("O=C(NC1(c2ccccn2)CC1)c1nn(-c2ccc(Cl)cc2)c2c1CCC/C2=C\\c1ccc(Cl)cc1", 1.61),
    ("C[C@@H](NC(=O)c1nn(-c2ccc(C(F)(F)F)cc2Cl)c2c1CCCC/C2=C\\c1ccc(Cl)s1)c1ccccn1", 0.64),
    ("O=C(NC1(c2ccccn2)CC1)c1nn(-c2ccc(C(F)(F)F)cc2Cl)c2c1CCC/C2=C\\c1ccc(Cl)s1", 4.63),
    ("O=C(NC1(c2ccccn2)CC1)c1nn(-c2ccc(C(F)(F)F)cc2Cl)c2c1CCCC/C2=C\\c1ccc(Cl)s1", 1.54),
]

**Query** State the recorded concentration at 4 h for this entry: `C[C@@H](NC(=O)c1nn(-c2ccc(C(F)(F)F)cc2Cl)c2c1CCC/C2=C\c1ccc(Cl)s1)c1ccccn1`
**Result** 0.46

**Query** State the recorded concentration at 4 h for this entry: `C[C@@H](NC(=O)c1nn(-c2ccc(Cl)c(Cl)c2)c2c1CCC/C2=C\c1ccc(Cl)s1)c1ccccn1`
**Result** 3.18

**Query** State the recorded concentration at 4 h for this entry: `O=C(NC1CCN(c2ccccn2)CC1)c1nn(-c2ccc(Cl)cc2Cl)c2c1CCC/C2=C\c1ccc(Cl)cc1`
**Result** 0.45
